Biological target: T1, recombinant human Bv8 (PeproTech) (human, UniProt Q9HC23-2 28-108, biotinylated (Sulfo-NHS-LC-biotin) in the two competition ELISAs with coated antibody)
T1 construct: Bought protein; also called HuBv8; prokineticin-2
T1 sequence (looked up): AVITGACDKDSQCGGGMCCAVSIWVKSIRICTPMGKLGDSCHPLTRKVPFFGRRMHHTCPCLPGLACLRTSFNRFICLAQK
Assay: competitive ELISA: antibody in serial dilution mixed with biotinylated human Bv8 (57 pM) and put on plate coated with mouse 2G9 IgG1 (m5, the competitor); streptavidin-HRP, OD 450/620; four-parameter fit
Method: Maxisorp 384 well plates were coated with 1 μg/ml parent mouse 2G9 IgG1 antibody at 25 μl/well in 50 mM sodium carbonate buffer, pH 9.6, at 4° C. overnight. Plates were washed with phosphate buffered saline (PBS) containing 0.05% polysorbate, pH 7.4 and blocked with PBS containing 0.5% BSA, 10 ppm Proclin, pH 7.4, at 80 μL1/well. […] The reaction was stopped by adding 1 M phosphoric acid and absorbance was read at 450 nm on a Multiskan Ascent reader (Thermo Scientific, Hudson, N.H.). […]
ATTRIBUTE MEASURED: IC50
Give me the value, and tack the unit on after it.

h2G9.K4G1.Polish IgG (antibody, V domains shown, IgG; constant regions not described for the humanized antibodies; also called parental polished K4G1 molecule) VH: EVQLVQSGAEVKKPGASVKVSCKASGYSFTDYDMHWVRQAPGQGLEWIGYISSYSGATTYNQKFKGRVTITVDKSTSTAYLELSSLRSEDTAVYYCARDSNYGEAYAMDYWGQGTLVTVSS VL: DIVMTQSPDSLAVSLGERATINCKASQSVDYSGDSYMNWYQQKPGQPPKLLIYAASNLESGVPDRFSGSGSGTDFTLTISSLQAEDVAVYYCQQINEDPFTFGQGTKVEIK	0.084 nM

Give the reported IC50 for this binder. chimeric 2G9 anti-Bv8 antibody (IgG) (antibody, V domains shown, also called chimeric 2G9 IgG) VH: EVQLQQSGPEVVKTGASVKISCKASGYSFTDYDMHWVKQSQGKSLEWIGYISCYNGATTYNQKFKGKATFTVDKSSTTAYMQFNSLTSEDSAVYYCARDGNYGEAYAMDYWGQGTSLTVSS VL: DIVLTQSPASLAVSLGQRATISCKASQSVDYDGDSYMNWYQQKPGQPPKLLIYAASNLESGIPARFSGSGSGTDFTLNIHPVEEEDAATYYCQQINEDPFTFGQGTKVEIK
0.08 nM

Give the reported IC50 for this binder. h2G9.K4G1.v55 IgG (antibody, V domains shown, Variable domains only; IgG, constant regions not described; claims 8 and 9); also called humanized 2G9 variant 55) VH: EVQLVQSGAEVKKPGASVKVSCKASGYSFTDYDMHWVRQAPGQGLEWIGYISSYSGATTYNQKFKGRVTITVDKSTSTAYLELSSLRSEDTAVYYCARDSNYGEAYAMDYWGQGTLVTVSS VL: DIVMTQSPDSLAVSLGERATINCKASQSLDYYHYSYMNWYQQKPGQPPKLLIYAASNRESGVPDRFSGSGSGTDFTLTISSLQAEDVAVYYCQQINEDPFTFGQGTKVEIKR
0.013 nM

Give the reported IC50 for this binder. h2G9.K4G1 (antibody, V domains shown, also called h2G9.K4G1 anti-Bv8 antibody) VH: EVQLVQSGAEVKKPGASVKVSCKASGYSFTDYDMHWVRQAPGQGLEWIGYISCYNGATTYNQKFKGRVTITVDKSTSTAYLELSSLRSEDTAVYYCARDGNYGEAYAMDYWGQGTLVTVSS VL: DIVMTQSPDSLAVSLGERATINCKASQSVDYDGDSYMNWYQQKPGQPPKLLIYAASNLESGVPDRFSGSGSGTDFTLTISSLQAEDVAVYYCQQINEDPFTFGQGTKVEIK
0.984 nM

// data source = patent US20120014941A1
